These entries and their values trace back to PubChem BioAssay (NCATS).

For each record, write down the corresponding growth, % of control.
Assay: qHTS profiling of the MIPE4 collection as inhibitors of Plasmodium falciparum (HB3) proliferation (AID 743347);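 note: plate controls were DMSO vehicle wells for no effect and artemisinin wells for full effect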
Conditions: P. falciparum HB3 in erythrocytes, SYBR Green DNA, 72 h; at 28.5 µM (top of the series) unless noted
Numbers only, in %.

CN1CCc2c(n(Cc3ccc(C(=O)NO)cc3)c3ccccc23)C1
4.11
CC1C(=O)OC2C(O)C34C5CC(C(C)(C)C)C36C(OC(=O)C6O)OC4(C(=O)O5)C12O (centres undefined)
83.4
O=C(O)C1=CO[C@@H](O[C@@H]2O[C@H](CO)[C@H](O)[C@H](O)[C@H]2O)[C@@H]2C(CO)=CC[C@H]12
103
COC(=O)[C@H](c1ccccc1Cl)N1CCc2sccc2C1
24.3
O=C1NC(=O)C(=Cc2ccc(-c3ccc(F)cc3O)o2)S1
34.2
CCC(=C(c1ccc(O)cc1)c1ccc(OCCNC)cc1)c1ccccc1
3.87
CCN(CC)CCCCNc1nc2cc(Cl)c(Cl)cc2nc1-c1ccc(-c2cccs2)s1
5.94
Cc1ccccc1C(=O)c1ccc(Nc2ccc(Br)cc2N)cc1Cl
28.4

Continue with the molecule presented below.
What value of measured growth, % of control is listed for CC(C)C[C@H](NC(=O)c1cc2ccccc2s1)C(=O)N1CCN(C(=O)[C@H](CO)NS(=O)(=O)c2ccc(Cl)cc2Cl)CC1 ?
10.7
